Biological target: PD-1/PD-L1 interaction (Homo sapiens)
Construct: expressed in transfected cells; host or cells: CHO cells (aAPC-PD-L1) co-cultured with Jurkat cells overexpressing PD-1 and an NFAT-luciferase reporter
Sequence (Q9NZQ7 19-290): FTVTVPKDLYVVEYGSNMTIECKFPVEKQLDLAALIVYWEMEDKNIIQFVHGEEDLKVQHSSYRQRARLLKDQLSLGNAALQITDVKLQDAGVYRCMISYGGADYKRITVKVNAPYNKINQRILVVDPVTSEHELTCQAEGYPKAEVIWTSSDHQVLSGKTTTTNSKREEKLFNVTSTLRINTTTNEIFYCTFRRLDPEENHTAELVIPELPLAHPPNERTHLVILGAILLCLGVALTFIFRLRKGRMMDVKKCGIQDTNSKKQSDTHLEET
Experiment: PD-1/PD-L1 NFAT reporter co-culture assay
Type: cell-based
Conditions: Jurkat PD-1 NFAT-luciferase cells co-cultured with aAPC-PD-L1 CHO cells, 6 hrs at 37° C.; read-out: EC50 NFAT Luciferase
Quantity name: pEC50
Scale: negative log10 of molar concentration, which is what pEC50 denotes.

- COc1nc(OCc2cccc(-c3cccc(-c4ccc5c(c4)C[C@@H](N)C5)c3Cl)c2Cl)c(Br)cc1CN[C@](C)(CO)C(=O)O: 6.75

Now for a further compound.
Prompt line: // query pEC50 value for entry `COc1nc(O[C@H]2CCc3c(-c4cccc(-c5cnc6c(CN7CC8(CNC(=O)C8)C7)cn(C)c6n5)c4Cl)cccc32)c(Cl)cc1CN1CC[C@@H](C(=O)O)C1`
Response line: 7.57
